- Tested on: HCT-116
- test-method-notes: Selectivity ratio of IC50 for human CCL186 cells to IC50 for human HCT116 cells
- Type: functional
Each record's Ratio IC50 is compared with Low = under 1, Medium = from 1 up to 2, High = 2 and over to give its class.

Enquiry: Assign a category based on measured Ratio IC50 for COc1cc(OC)c(C2CCN(C)CC2)cc1C(=O)/C=C/c1ccccc1Cl and give only the class name.
Return: High

Enquiry: Assign a category based on measured Ratio IC50 for COc1ccc(C(=O)/C=C/c2ccc(Cl)cc2)c(OC)c1 and give only the class name.
Return: Medium

Enquiry: Assign a category based on measured Ratio IC50 for COc1cc(OC)c(N2CCN(C)CC2)cc1C(=O)/C=C/c1ccccc1 and give only the class name.
Return: Low

Enquiry: Assign a category based on measured Ratio IC50 for COc1ccc(C(=O)/C=C/c2cccnc2)c(OC)c1 and give only the class name.
Return: Medium

Enquiry: Assign a category based on measured Ratio IC50 for COc1ccc(C2CCN(C)CC2)cc1C(=O)/C=C/c1ccccc1 and give only the class name.
Return: High

Enquiry: Assign a category based on measured Ratio IC50 for COc1ccc(/C=C/C(=O)c2c(OC)cc(OC)c(C3CCN(C)CC3)c2O)cc1 and give only the class name.
Return: Low

Enquiry: Assign a category based on measured Ratio IC50 for COc1cc(OC)c(C2CCN(C)CC2)c(O)c1C(=O)/C=C/c1ccccc1 and give only the class name.
Return: Medium

Enquiry: Assign a category based on measured Ratio IC50 for COc1cc(OC)c(N2CCN(C)CC2)cc1C(=O)/C=C/c1ccccc1Cl and give only the class name.
Return: Medium

Enquiry: Assign a category based on measured Ratio IC50 for COc1cc(OC)c(N2CCN(C)CC2)cc1C(=O)/C=C/c1ccc(N2CCN(C)CC2)cc1 and give only the class name.
Return: Medium

Enquiry: Assign a category based on measured Ratio IC50 for COc1cc(OC)c(C2CCN(C)CC2)cc1C(=O)/C=C/c1ccc(C)cc1 and give only the class name.
Return: Low
